# study_system: T1, MHC class I molecule B*0702 (biotin (bound via biotin to streptavidin-coated plates))
# T1 construct: Methods name B*0702 as the allele used; also called B7; HLA-B7
# experimental_details: iTopia affinity assay (ED50), peptide titration on plate-bound MHC
pEC50: −log10 of the molar value.
Decide using pEC50: a value greater than or equal to 5 is Y, a smaller one is N.

# binder, cat
measured = [
    ("APFLASAVS [5T4 9 mer peptide 23 (APFLASAVS)]", "N"),
    ("LTYVSFRNL [5T4 9 mer peptide 125 (LTYVSFRNL)]", "Y"),
]

Task: Quick check, pEC50 >= 5? LAELAALNL [5T4 9 mer peptide 59 (LAELAALNL)]
Result: N

Task: Quick check, pEC50 >= 5? SPTSSASSF [5T4 9 mer peptide 17 (SPTSSASSF)]
Result: Y

Task: Quick check, pEC50 >= 5? PPLAELAAL [5T4 9 mer peptide 58 (PPLAELAAL)]
Result: N

Task: Quick check, pEC50 >= 5? LPAYVRNLF [5T4 9 mer peptide 45 (LPAYVRNLF)]
Result: Y

Task: Quick check, pEC50 >= 5? RLDEVRAGA [5T4 9 mer peptide 65 (RLDEVRAGA)]
Result: N
